Below, each entry is listed with its recorded EC50.
- Tested On: Alpha-2A adrenergic receptor (Homo sapiens)
- Sequence (P08913 whole entry): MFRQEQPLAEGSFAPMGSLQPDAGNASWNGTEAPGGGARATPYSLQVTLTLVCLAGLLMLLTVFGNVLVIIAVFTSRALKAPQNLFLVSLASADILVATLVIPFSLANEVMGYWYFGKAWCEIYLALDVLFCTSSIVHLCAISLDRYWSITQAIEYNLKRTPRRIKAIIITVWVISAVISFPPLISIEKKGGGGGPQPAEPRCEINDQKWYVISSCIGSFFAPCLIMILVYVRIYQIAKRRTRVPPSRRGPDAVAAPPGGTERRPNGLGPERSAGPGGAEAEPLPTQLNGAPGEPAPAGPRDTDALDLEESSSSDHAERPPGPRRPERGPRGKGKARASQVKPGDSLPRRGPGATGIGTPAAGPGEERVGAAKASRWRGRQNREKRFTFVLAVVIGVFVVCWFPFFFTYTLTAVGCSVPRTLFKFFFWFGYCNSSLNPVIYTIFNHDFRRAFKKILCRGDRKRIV

{"columns": ["Structure Notation", "EC50"],
 "data": [
  ["Fc1ccc2c(c1)OCC=C2c1cnc[nH]1", "> 5 µM"],
  ["Brc1ccc2c(c1)C(c1c[nH]cn1)=CCO2", "> 5 µM"],
  ["Cc1[nH]cnc1C1=CCOc2c(Cl)cccc21", "> 5 µM"],
  ["COc1ccc2c(c1)C(c1c[nH]cn1)=CCO2", "> 5 µM"],
  ["Cc1cccc2c1OCC=C2c1nc[nH]c1C", "> 5 µM"],
  ["Brc1ccc2c(c1)OCC=C2c1c[nH]cn1", "> 5 µM"],
  ["Clc1cc(Br)cc2c1OCC=C2c1c[nH]cn1", "> 5 µM"]
]}
